TESTED_SYSTEM: B1R receptor of the rat (bradykinin 1 receptor) (Rattus norvegicus, UniProt P97583)
Construct: host or cells: CHO K1 cells (rB1R cells)
Sequence (P97583 whole entry): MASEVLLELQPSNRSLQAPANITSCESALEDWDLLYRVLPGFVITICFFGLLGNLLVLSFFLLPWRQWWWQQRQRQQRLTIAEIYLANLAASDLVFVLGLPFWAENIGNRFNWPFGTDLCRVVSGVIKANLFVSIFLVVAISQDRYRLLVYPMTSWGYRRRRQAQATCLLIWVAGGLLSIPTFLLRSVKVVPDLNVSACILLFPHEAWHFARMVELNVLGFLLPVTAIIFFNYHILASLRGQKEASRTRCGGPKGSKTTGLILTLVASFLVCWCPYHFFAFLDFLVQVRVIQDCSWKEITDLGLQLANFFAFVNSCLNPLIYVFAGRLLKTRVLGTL
ASSAY_METHOD_TEXT: FLIPR Ca2+ assay (Fluo-4) on CHO K1 cells stably transfected with the B1R gene of the rat; % activation and % inhibition at 10 μM
Format: cell-based
RECORDED_CONDITIONS: CHO-K1, test substance 10 μM; CHO K1 rB1R cells; Ca2+ inflow after 100 nM Des-Arg9-bradykinin; read-out: B1R antagonism, rat [10 μM] % inhibition
ENDPOINT: inhibition at 10 µM (%)
Lab book: enter the figure in %, no units written.

Guide cases for inhibition at 10 µM, answers given:
COMPOUND	inhibition at 10 µM / %
COc1ccc(S(=O)(=O)N2Cc3ccccc3CC2COCC(=O)N2CCC(O)(Cc3ccccc3)CC2)cc1 (stereo not drawn)	56.9
COc1cc(C)c(S(=O)(=O)N(CCOCC(=O)N2CCC(O)(c3ccc(Br)cc3)CC2)CC2CC2)c(C)c1C	100
O=C(COCC1CCCN1S(=O)(=O)c1c(Cl)cccc1Cl)N1CCC(O)(c2ccccc2)CC1 (stereo not drawn)	102
COc1cc(C)c(S(=O)(=O)N2CCC(COCC(=O)N3CCC(O)(c4cccc(C(F)(F)F)c4)CC3)C2)c(C)c1 (stereo not drawn)	98.7
O=C(COCC1Cc2ccccc2CN1S(=O)(=O)c1ccc(Cl)cc1Cl)N1CCC(O)(c2ccccc2)CC1 (stereo not drawn)	82.5
CN(CCOCC(=O)N1CCC(O)(c2ccccn2)CC1)S(=O)(=O)c1ccc(F)cc1	-1.13

Using known records, supply inhibition at 10 µM for Cc1cc(Cl)cc(Cl)c1S(=O)(=O)N(C)CCOCC(=O)N1CCC(O)(Cc2ccccc2)CC1
96.1

// Input: COc1cc(C)c(S(=O)(=O)N2CCC(COCC(=O)N3CCC(O)(c4ccc(Cl)cc4)CC3)C2)c(C)c1 (stereo not drawn) . Output its inhibition at 10 µM only.
98.5

Kindly indicate its recorded inhibition at 10 µM. Item: COc1cc(C)c(S(=O)(=O)N(C)CCOCC(=O)N2CCC(O)(CCc3cccnc3)CC2)c(C)c1
101

###

TESTED_SYSTEM: B1R receptor of the rat (bradykinin 1 receptor) (Rattus norvegicus, UniProt P97583)
Construct: host or cells: CHO K1 cells (rB1R cells)
ASSAY_METHOD_TEXT: FLIPR Ca2+ assay (Fluo-4) on CHO K1 cells stably transfected with the B1R gene of the rat; % activation and % inhibition at 10 μM
Assay type: cell-based
RECORDED_CONDITIONS: CHO-K1, test substance 10 μM; CHO K1 rB1R cells; Ca2+ inflow after 100 nM Des-Arg9-bradykinin; read-out: B1R antagonism, rat [10 μM] % inhibition
Each entry below carries its reported inhibition at 10 µM.
Reply with just the number (in %).

COMPOUND	UNIT_ABBREV	inhibition at 10 µM
COc1cc(C)c(S(=O)(=O)N(C)CCOCC(=O)N2CCC(O)(c3ccncc3)CC2)c(C)c1 [Example 88]	%	103
O=C(COCC1CCc2ccccc2N1S(=O)(=O)c1ccc(Cl)c(Cl)c1)N1CCC(O)(c2ccncc2)CC1 (stereo not drawn) [Example 147]	%	93.3
Cc1cc(C)c(S(=O)(=O)N2CCCCC2COCC(=O)N2CCC(O)(c3ccccn3)CC2)c(C)c1 (stereo not drawn) [Example 94]	%	103
Cc1cc(S(=O)(=O)N(C)CCOCC(=O)N2CCC(O)(c3cccnc3)CC2)c(Cl)cc1Cl [Example 199]	%	98.2
O=C(COCC1Cc2ccccc2CN1S(=O)(=O)c1ccccc1)N1CCC(O)(c2ccccn2)CC1 (stereo not drawn) [Example 73]	%	14.4

Quickly give me recorded inhibition at 10 µM for Cc1ccc(S(=O)(=O)N2CCCCC2COCC(=O)N2CCC(O)(c3cccnc3)CC2)cc1Cl (stereo not drawn) [Example 161]
80.8

Look up and state reported inhibition at 10 µM for COc1cc(C)c(S(=O)(=O)N(C)CCOCC(=O)N2CCC(O)(c3cccs3)CC2)c(C)c1 [Example 86]
102

Give the reported inhibition at 10 µM for this compound. CN(CCCC(=O)N1CCC(O)(c2cccnc2)CC1)S(=O)(=O)c1ccc2ccccc2c1 [Example 115]
44.3

Give the value of inhibition at 10 µM reported for the following: O=C(COCC1CCCCN1S(=O)(=O)c1ccccc1C(F)(F)F)N1CCC(O)(c2cccnc2)CC1 (stereo not drawn) [Example 172]
105

Hello, please tell me recorded inhibition at 10 µM for this one: COc1cc(C)c(S(=O)(=O)N(C)CCOCCC(=O)N2CCC(O)(Cc3ccccc3)CC2)c(C)c1 [Example 277]
88.2

Return inhibition at 10 µM (reported value) for this compound: COc1cc(C)c(S(=O)(=O)N(CCOCC(=O)N2CCC(O)(c3ccccc3)CC2)CC2CC2)c(C)c1C [Example 206]
100
